Please provide measured IC50 for the entries that follow.
target: Vps34 enzyme (Homo sapiens (Human)); experiment: Vps34 biochemical assay (Adapta kinase assay); details: 20 μM ATP and 200 μM PI:PS in substrate mix, 1 h at room temperature, read-out: Median IC50 uM Adapta
Form field: result (number plus unit)

Ask: State its IC50 for this compound: C[C@@H]1COCCN1c1cc(N2CCCC2c2ccccc2)[nH]c(=O)c1 (mixture of isomers) [Example 18]
Result: 0.06 µM

Ask: State its IC50 for this compound: COC(C)(C)C1CCCN1c1cc(N2CCOC[C@H]2C)cc(=O)[nH]1 (single isomer, unassigned) [Example 11_2]
Result: 0.3 µM

Ask: State its IC50 for this compound: C[C@@H]1COCCN1c1cc(N2CCS(=O)(=O)CC2)[nH]c(=O)c1
Result: 0.4 µM

Ask: State its IC50 for this compound: Cc1ccc(C2CCCN2c2cc(N3CCOC[C@H]3C)cc(=O)[nH]2)o1 (mixture of isomers) [Example 22]
Result: 0.06 µM

----------
target: UniProtKB Q8NEB9; assay: Vps34 biochemical assay (Adapta kinase assay); details: 20 μM ATP and 200 μM PI:PS in substrate mix, 1 h at room temperature, read-out: Median IC50 uM Adapta
Please provide measured IC50 for the entries that follow.
Report the figure in µM without appending any unit label.

Ask: Send back UniProtKB Q8NEB9 IC50 of C[C@@H]1COCCN1c1cc(N2CCCC2C2CCCCC2)[nH]c(=O)c1 (single isomer, unassigned) [Example 12_1] only.
Result: 0.2

Ask: Send back UniProtKB Q8NEB9 IC50 of C[C@@H]1COCCN1c1cc(N2CCCC2c2cc(F)ccc2F)[nH]c(=O)c1 (mixture of isomers) [Example 14] only.
Result: 0.04

Ask: Send back UniProtKB Q8NEB9 IC50 of Cc1ccc(C2CCCN2c2cc(N3CCOC[C@H]3C)cc(=O)[nH]2)o1 (single isomer, unassigned) [Example 22_1] only.
Result: 0.04

Ask: Send back UniProtKB Q8NEB9 IC50 of C[C@@H]1COCCN1c1cc(N2CCCC2c2cnn(C)c2)[nH]c(=O)c1 (single isomer, unassigned) [Example 19_1] only.
Result: 0.3

----------
molecular target: Vps34 enzyme (Homo sapiens (Human)); experiment: Vps34 biochemical assay (Adapta kinase assay); settings: 20 μM ATP and 200 μM PI:PS in substrate mix, 1 h at room temperature, read-out: Median IC50 uM Adapta
Classify: T when IC50 is strictly less than 0.05 µM; F when IC50 is not.

Ask: Is IC50 strictly under 0.05 µM for the entry CCn1ccc(C2CCCN2c2cc(N3CCOC[C@H]3C)cc(=O)[nH]2)n1 (single isomer, unassigned) [Example 21_1] ?
Result: F

Ask: Is IC50 strictly under 0.05 µM for the entry C[C@@H]1COCCN1c1cc(N2CCCC2c2cccc(F)c2)[nH]c(=O)c1 (mixture of isomers) [Example 13] ?
Result: T

Ask: Is IC50 strictly under 0.05 µM for the entry C[C@@H]1COCCN1c1cc(N2CCCC2c2cccc(N(C)C)c2)[nH]c(=O)c1 (mixture of isomers) ?
Result: T

Ask: Is IC50 strictly under 0.05 µM for the entry C[C@@H]1COCCN1c1cc(N2CCCC2C2CCCCC2)[nH]c(=O)c1 (single isomer, unassigned) [Example 12_2] ?
Result: F

Ask: Is IC50 strictly under 0.05 µM for the entry C[C@@H]1COCCN1c1cc(N2CCN(C)CC2c2ccccc2)[nH]c(=O)c1 (stereo partly drawn) ?
Result: F

Ask: Is IC50 strictly under 0.05 µM for the entry CCn1ccc(C2CCCN2c2cc(N3CCOC[C@H]3C)cc(=O)[nH]2)n1 (single isomer, unassigned) [Example 21_2] ?
Result: F

Ask: Is IC50 strictly under 0.05 µM for the entry COC(C)(C)C1CCCN1c1cc(N2CCOC[C@H]2C)cc(=O)[nH]1 (mixture of isomers) [Example 11] ?
Result: F

Ask: Is IC50 strictly under 0.05 µM for the entry C[C@@H]1COCCN1c1cc(N2CCCC2C2CCCCC2)[nH]c(=O)c1 (mixture of isomers) [Example 12] ?
Result: F

Ask: Is IC50 strictly under 0.05 µM for the entry C[C@@H]1COCCN1c1cc(N2CCCC2c2ccccc2)[nH]c(=O)c1 (single isomer, unassigned) [Example 18_2] ?
Result: T

Ask: Is IC50 strictly under 0.05 µM for the entry CC(=O)N1CCN(c2cc(N3CCOC[C@H]3C)cc(=O)[nH]2)C(C(F)(F)F)C1 (stereo partly drawn) ?
Result: T

Ask: Is IC50 strictly under 0.05 µM for the entry C[C@@H]1COCCN1c1cc(N2CCCC2c2cccc(C(F)(F)F)c2)[nH]c(=O)c1 (mixture of isomers) [Example 16] ?
Result: T

Ask: Is IC50 strictly under 0.05 µM for the entry C[C@@H]1COCCN1c1cc(N2CC[S+]([O-])CC2)[nH]c(=O)c1 ?
Result: F

Ask: Is IC50 strictly under 0.05 µM for the entry C[C@@H]1COCCN1c1cc(N2CCN(C(=O)C3CCCO3)CC2C(F)(F)F)[nH]c(=O)c1 (single isomer, unassigned) [Example 48_2] ?
Result: T

Ask: Is IC50 strictly under 0.05 µM for the entry CC1COCCN1c1cc(C2CCOCC2)[nH]c(=O)c1 (stereo not drawn) ?
Result: F

Ask: Is IC50 strictly under 0.05 µM for the entry Cc1cc(C2CCCN2c2cc(N3CCOC[C@H]3C)cc(=O)[nH]2)nn1C (mixture of isomers) [Example 20] ?
Result: F

----------
target: Vps34 enzyme (Homo sapiens (Human)); assay: Vps34 biochemical assay (Adapta kinase assay); settings: 20 μM ATP and 200 μM PI:PS in substrate mix, 1 h at room temperature, read-out: Median IC50 uM Adapta
measurement kind: IC50 (µM)
Report the figure in µM without appending any unit label.

Ask: Send back Vps34 enzyme (Homo sapiens (Human)) IC50 of C[C@@H]1COCCN1c1cc(N2CCCC2c2cnn(C)c2)[nH]c(=O)c1 (mixture of isomers) [Example 19] only.
Result: 0.1

Ask: Send back Vps34 enzyme (Homo sapiens (Human)) IC50 of C[C@@H]1COCCN1c1cc(N2CCCCC2C(F)(F)F)[nH]c(=O)c1 (single isomer, unassigned) [Example 25_1] only.
Result: 0.002

Ask: Send back Vps34 enzyme (Homo sapiens (Human)) IC50 of C[C@@H]1COCCN1c1cc(N2CCCC2c2ccccn2)[nH]c(=O)c1 (mixture of isomers) [Example 38] only.
Result: 0.05

Ask: Send back Vps34 enzyme (Homo sapiens (Human)) IC50 of CC1COCCN1c1cc(C2=CCOCC2)[nH]c(=O)c1 (stereo not shown) only.
Result: 0.2

Ask: Send back Vps34 enzyme (Homo sapiens (Human)) IC50 of C[C@@H]1COCCN1c1cc(N2CCOCC2C(F)(F)F)[nH]c(=O)c1 (single isomer, unassigned) [Example 43_1] only.
Result: 0.003

Ask: Send back Vps34 enzyme (Homo sapiens (Human)) IC50 of C[C@@H]1COCCN1c1cc(N2CCCC2c2cccc(C3CC3)c2)[nH]c(=O)c1 (stereo partly shown) only.
Result: 0.02

Ask: Send back Vps34 enzyme (Homo sapiens (Human)) IC50 of C[C@@H]1COCCN1c1cc(N2CCCC2c2cccc(C(F)(F)F)c2)[nH]c(=O)c1 (single isomer, unassigned) [Example 16_2] only.
Result: 0.08

----------
tested on: autophagy in HOS cells (GFP-LC3); experiment: High content screening autophagy assay (GFP-LC3 foci); format: cell-based, Human; settings: HOS cells with GFP-LC3; autophagy activated by KU-0063794 500 nM with Bafilomycin A1 5 nM; 6 hours; foci area per cell; read-out: Median IC50 (uM) Cellular assay
measurement kind: IC50 (µM)
Report the figure in µM without appending any unit label.

Ask: State its IC50 for this compound: C[C@@H]1COCCN1c1cc(N2CCCC2c2cccc(Cl)c2)[nH]c(=O)c1 (single isomer, unassigned)
Result: 0.7

----------
Molecular target: Vps34 enzyme (Homo sapiens (Human), UniProt Q8NEB9)
Sequence (Q8NEB9 whole entry): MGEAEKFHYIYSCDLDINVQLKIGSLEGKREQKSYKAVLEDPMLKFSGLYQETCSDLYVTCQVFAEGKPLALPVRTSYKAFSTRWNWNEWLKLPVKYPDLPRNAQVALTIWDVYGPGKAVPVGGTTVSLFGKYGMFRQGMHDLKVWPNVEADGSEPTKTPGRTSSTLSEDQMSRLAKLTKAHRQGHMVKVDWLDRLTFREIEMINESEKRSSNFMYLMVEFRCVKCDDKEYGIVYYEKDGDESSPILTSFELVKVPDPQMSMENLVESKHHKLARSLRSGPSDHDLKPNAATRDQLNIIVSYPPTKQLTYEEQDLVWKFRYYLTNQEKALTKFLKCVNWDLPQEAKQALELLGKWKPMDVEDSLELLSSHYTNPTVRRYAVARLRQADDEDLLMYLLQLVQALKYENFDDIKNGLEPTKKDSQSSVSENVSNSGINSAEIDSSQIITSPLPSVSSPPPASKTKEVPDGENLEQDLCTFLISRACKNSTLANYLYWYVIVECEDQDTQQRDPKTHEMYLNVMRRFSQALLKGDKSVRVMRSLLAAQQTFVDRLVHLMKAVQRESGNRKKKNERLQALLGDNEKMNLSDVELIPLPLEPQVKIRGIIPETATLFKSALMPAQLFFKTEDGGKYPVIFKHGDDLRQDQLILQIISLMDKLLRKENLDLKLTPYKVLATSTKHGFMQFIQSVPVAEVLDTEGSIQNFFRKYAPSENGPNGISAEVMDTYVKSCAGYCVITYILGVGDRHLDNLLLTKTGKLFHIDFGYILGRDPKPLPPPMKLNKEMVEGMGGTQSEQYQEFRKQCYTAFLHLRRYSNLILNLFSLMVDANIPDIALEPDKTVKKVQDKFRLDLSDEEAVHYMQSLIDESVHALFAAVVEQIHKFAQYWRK
Assay: Vps34 biochemical assay (Adapta kinase assay)
Settings: 20 μM ATP and 200 μM PI:PS in substrate mix, 1 h at room temperature, read-out: Median IC50 uM Adapta
Procedure: Dilution series of compounds of the invention were prepared in DMSO at 100 times the final assay concentration (n1=n0/3 in 10 points). […] The assay plate was then incubated at room temperature for 30 min and read with Artemis micro plate reader. Percent inhibition of the compounds as compared to DMSO treated control samples was calculated. […]
measurement kind: IC50 (µM)
Report the figure in µM without appending any unit label.

Ask: State its IC50 for this compound: C[C@@H]1COCCN1c1cc(N2CCCC2c2cccc(Cl)c2)[nH]c(=O)c1 (single isomer, unassigned) [Example 36_1]
Result: 0.01

Ask: State its IC50 for this compound: C[C@@H]1COCCN1c1cc(N2CCCC2c2cc(F)ccc2F)[nH]c(=O)c1 (single isomer, unassigned) [Example 14_1]
Result: 0.02

Ask: State its IC50 for this compound: C[C@@H]1COCCN1c1cc(N2CCCC2c2cccc(Cl)c2)[nH]c(=O)c1 (single isomer, unassigned) [Example 36_2]
Result: 0.02

Ask: State its IC50 for this compound: Cc1cc(C2CCCN2c2cc(N3CCOC[C@H]3C)cc(=O)[nH]2)nn1C (single isomer, unassigned) [Example 20_1]
Result: 0.06

Ask: State its IC50 for this compound: C[C@@H]1COCCN1c1cc(N2CCCC2c2cccc(OC(F)(F)F)c2)[nH]c(=O)c1 (single isomer, unassigned) [Example 15_2]
Result: 0.2

Ask: State its IC50 for this compound: C[C@@H]1COCCN1c1cc(N2CCN(C(=O)C3CCCO3)CC2C(F)(F)F)[nH]c(=O)c1 (single isomer, unassigned) [Example 48_1]
Result: 0.01
